Values were extracted from patent US6887882B2.

system: hKv1.5 channel (Homo sapiens, UniProt P22460)
Construct: expressed in transfected cells; host or cells: mouse Ltk- cells (pMSVneo vector, G418 selection)
Sequence (P22460 whole entry): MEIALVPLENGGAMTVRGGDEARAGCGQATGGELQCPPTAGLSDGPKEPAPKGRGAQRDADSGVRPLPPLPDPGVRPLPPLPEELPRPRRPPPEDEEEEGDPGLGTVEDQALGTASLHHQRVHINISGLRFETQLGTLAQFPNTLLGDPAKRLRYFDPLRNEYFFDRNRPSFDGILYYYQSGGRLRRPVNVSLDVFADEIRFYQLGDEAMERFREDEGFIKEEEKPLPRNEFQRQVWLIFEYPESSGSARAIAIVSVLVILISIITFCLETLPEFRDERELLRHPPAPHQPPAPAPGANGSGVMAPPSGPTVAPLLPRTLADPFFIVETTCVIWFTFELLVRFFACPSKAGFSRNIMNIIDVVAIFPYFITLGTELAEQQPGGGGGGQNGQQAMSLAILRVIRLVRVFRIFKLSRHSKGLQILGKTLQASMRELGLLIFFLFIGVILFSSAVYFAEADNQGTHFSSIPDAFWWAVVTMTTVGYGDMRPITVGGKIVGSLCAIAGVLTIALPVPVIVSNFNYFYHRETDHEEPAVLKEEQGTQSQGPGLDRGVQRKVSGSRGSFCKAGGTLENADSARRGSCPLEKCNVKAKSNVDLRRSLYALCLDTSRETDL
protocolDetails: Block of hKv1.5 channel currents expressed in Ltk-cells (whole cell patch clamp)
Assay type: cell-based
experimentalParameters: from concentration-response curves using the Hill equation
measuredAttribute: Hill value
Answers are plain numbers.

CN1Cc2c(ccc3c2OCO3)[C@H]2[C@@H](OC(N)=O)Cc3cc4c(cc3[C@H]21)OCO4 = 1.12

# return Hill value for each item in the list
1. CN1Cc2c(ccc3c2OCO3)[C@@H]2[C@H]1c1cc3c(cc1C[C@@H]2O)OCO3
2. CN1Cc2c(ccc3c2OCO3)[C@H]2[C@@H](OCc3ccccc3)Cc3cc4c(cc3[C@H]21)OCO4
3. CN1Cc2c(ccc3c2OCO3)[C@H]2[C@@H](OP(=O)(Oc3ccccc3)Oc3ccccc3)Cc3cc4c(cc3[C@H]21)OCO4
4. Cc1ccc(S(=O)(=O)O[C@H]2Cc3cc4c(cc3[C@@H]3[C@H]2c2ccc5c(c2CN3C)OCO5)OCO4)cc1
5. CN1Cc2c(ccc3c2OCO3)[C@H]2CCc3cc4c(cc3[C@H]21)OCO4
6. CC(=O)O[C@H]1Cc2cc3c(cc2[C@@H]2[C@H]1c1ccc4c(c1CN2C)OCO4)OCO3
7. CN1Cc2c(ccc3c2OCO3)C2=CCc3cc4c(cc3[C@H]21)OCO4

1: 1.07; 2: 1.37; 3: 1.26; 4: 1.19; 5: 1.38; 6: 1.34; 7: 0.98

# return Hill value for each item in the list
1. CN1Cc2c(ccc3c2OCO3)[C@@]2(C)[C@@H](O)Cc3cc4c(cc3[C@@H]12)OCO4
2. CN1Cc2c(ccc3c2OCO3)[C@H]2[C@@H](OC(=O)c3ccccc3)Cc3cc4c(cc3[C@H]21)OCO4
3. CO[C@H]1Cc2cc3c(cc2[C@@H]2[C@H]1c1ccc4c(c1CN2C)OCO4)OCO3
4. C[n+]1cc2c3c(ccc2c2ccc4cc5c(cc4c21)OCO5)OCO3
5. CN1Cc2c(ccc3c2OCO3)-c2ccc3cc4c(cc3c21)OCO4

1.34
1.18
1.29
1.39
1.09

Lab book: Hill value of "CN1Cc2c(ccc3c2OCO3)[C@H]2[C@@H](OS(C)(=O)=O)Cc3cc4c(cc3[C@H]21)OCO4" noted as 1.20

---

Consider the following compounds; for each one, report its IC50.
system: hKv1.5 channel (Homo sapiens, UniProt P22460)
protocolDetails: Block of hKv1.5 channel currents expressed in Ltk-cells (whole cell patch clamp)
experimentalParameters: hKv1.5 expressed in Ltk-cells; steady-state current at end of +50 mV depolarizing pulse, holding -80 mV
Give bare numbers, in µM.

CN1Cc2c(ccc3c2OCO3)C2=CCc3cc4c(cc3[C@H]21)OCO4 = 19.9
CN1Cc2c(ccc3c2OCO3)[C@H]2[C@@H](OC(N)=O)Cc3cc4c(cc3[C@H]21)OCO4 = 1.9
CN1Cc2c(ccc3c2OCO3)[C@H]2[C@@H](OCc3ccccc3)Cc3cc4c(cc3[C@H]21)OCO4 = 59.3

Lab book: IC50 of "CN1Cc2c(ccc3c2OCO3)[C@H]2CCc3cc4c(cc3[C@H]21)OCO4" noted as 65.6

---

Consider the following compounds; for each one, report its IC50.
system: hKv1.5 channel (Homo sapiens, UniProt P22460)
protocolDetails: Block of hKv1.5 channel currents expressed in Ltk-cells (whole cell patch clamp)
experimentalParameters: hKv1.5 expressed in Ltk-cells; steady-state current at end of +50 mV depolarizing pulse, holding -80 mV
Answers are plain numbers, in µM.

Answered examples (4):
C[n+]1cc2c3c(ccc2c2ccc4cc5c(cc4c21)OCO5)OCO3 = 13
CN1Cc2c(ccc3c2OCO3)-c2ccc3cc4c(cc3c21)OCO4 = 26.4
CN1Cc2c(ccc3c2OCO3)[C@@H]2[C@H]1c1cc3c(cc1C[C@@H]2O)OCO3 = 11.5
CN1Cc2c(ccc3c2OCO3)[C@H]2[C@@H](OS(C)(=O)=O)Cc3cc4c(cc3[C@H]21)OCO4 = 31.3

# return IC50 for each item in the list
1. CC(=O)O[C@H]1Cc2cc3c(cc2[C@@H]2[C@H]1c1ccc4c(c1CN2C)OCO4)OCO3
2. CO[C@H]1Cc2cc3c(cc2[C@@H]2[C@H]1c1ccc4c(c1CN2C)OCO4)OCO3
3. Cc1ccc(S(=O)(=O)O[C@H]2Cc3cc4c(cc3[C@@H]3[C@H]2c2ccc5c(c2CN3C)OCO5)OCO4)cc1

1: 11.3; 2: 45.2; 3: 29.6

Lab book: IC50 of "CN1Cc2c(ccc3c2OCO3)[C@H]2[C@@H](OC(=O)c3ccccc3)Cc3cc4c(cc3[C@H]21)OCO4" noted as 29.3
